The following compounds are shown together with reported growth values.
Tested on: IGROV1 ovarian
Assay: NCI-60 one-dose screen, 48 h (100 = growth as untreated, 0 = no growth, -100 = all killed)
Settings: 10 µM unless noted
The panel holds about 83,000 compounds, 20% with a hit somewhere; the sample as a whole holds those more often. Activity calls are given as the source filed them. How the source made its calls: active means growth percent below 10; inactive means the rest.
Readout kind: growth

1) Oc1ccc(/C=N/Nc2nnc(N/N=C/c3ccc(O)cc3O)c3ccccc23)c(O)c1 | -2.51% (active)
2) O=C(NOC[C@H](O)CO)c1ccc(F)c(F)c1Nc1ccc(I)cc1F | 14.1% (inactive)
3) CO/C=C/C(=O)c1cc2cnc3c(=N)cc(NC(=O)C(C)C)c([nH]1)c23 | -40% (active)
4) COc1cc(NC2CCC(=O)N2c2ccc(Cl)cc2Cl)cc(OC)c1OC (stereo not drawn) | 105% (inactive)
5) Cc1cc([C@@H](C)Nc2ccccc2C(=O)O)c2nc(N3CCOCC3)cc(=O)n2c1 | -4.69% (active)
6) O=C(NOCCO)c1ccc2cncn2c1Nc1ccc(I)cc1F | 26.2% (inactive)
7) N#CC1(C#N)C(c2cccs2)NC(c2cccs2)C1(C#N)C#N (stereo not drawn) | 101% (inactive)
8) Nc1cc(C(F)(F)F)c(-c2cc(N3CCOCC3)nc(N3CCOCC3)n2)cn1 | -44.6% (active)
9) O=S1(=O)OC(c2ccc(O)c(Cl)c2)(c2ccc(O)c(Cl)c2)c2ccccc21 | 91.2% (inactive)
10) COc1ccc(-c2nocc2-c2cc(OC)c(OC)c(OC)c2)cc1 | 46.6% (inactive)
11) c1ccc2c(c1)CCN(NCCN1CCCC1)C2 | 96.3% (inactive)
12) Cc1oc2c(C(=O)N/N=C\c3ccc(O)cc3O)c[nH]c2c1C | 24.1% (inactive)
13) C=CC(=O)N(C)[C@H]1C[C@H]2OC(C)(C1OC)n1c3ccccc3c3c4c(c5c6ccccc6n2c5c31)C(=O)NC4 (stereo partly drawn) | 13.7% (inactive)
14) N#Cc1ccc(-n2nnc3ccccc32)cc1C#N | 104% (inactive)
15) COC(=O)[C@@H](NC(=O)[C@@H](OC)[C@@H]1Cc2cc3cc(OC4CC(OC5CC(O)C(O)C(C)O5)C(O)C(C)O4)c(C)c(O)c3c(O)c2C(=O)[C@H]1OC1CC(OC2CC(OC3CC(C)(O)C(O)C(C)O3)C(O)C(C)O2)C(O)C(C)O1)C(C)C (stereo partly drawn) | 32.3% (inactive)
16) C=CCC(=O)N[C@H](/C=C/C(=O)O)Cc1ccc(-c2cc(Cl)cc(Cl)c2)cc1 | 114% (inactive)
17) COc1ccc(CCCc2c3[n+](cc4c(OC)c(OC)ccc24)CCc2cc4c(cc2-3)OCO4)cc1 | 53.9% (inactive)
18) COC(=O)[C@H](C)NC(=O)[C@@H](OC)[C@@H]1Cc2cc3cc(OC4CC(OC5CC(O)C(O)C(C)O5)C(O)C(C)O4)c(C)c(O)c3c(O)c2C(=O)[C@H]1OC1CC(OC2CC(OC3CC(C)(O)C(O)C(C)O3)C(O)C(C)O2)C(O)C(C)O1 (stereo partly drawn) | 22.8% (inactive)
19) N#Cc1c(-c2ccc(Cl)cc2)csc1NC(=O)Nc1cccc(C(F)(F)F)c1 | 33.5% (inactive)
20) c1cn2cc(-c3ccc4cn[nH]c4c3)nc(Nc3ccc(N4CCOCC4)cc3)c2n1 | 58.7% (inactive)
21) NC1(C(=O)N[C@@H](CCO)c2ccc(Cl)cc2)CCN(c2ncnc3[nH]ccc23)CC1 | 3.26% (active)
22) CC(=O)NCC(=O)N1[C@@H]2CC[C@H]1c1ccc(Nc3ncc(C(F)(F)F)c(NC4CCC4)n3)cc12 | 31.5% [2.5 µM] (inactive)
23) CC(=Nc1ccccc1)C1=C(O)C(Cc2ccccc2)NC1=O (stereo not drawn) | 6.28% (active)
24) Nc1c(Cl)cccc1[N+](=O)[O-] | 112% (inactive)
25) COc1cc2ncnc(Oc3cccc(NC(=O)Nc4cc(C(C)(C)C(F)(F)F)on4)c3)c2cc1OC | -11.1% (active)
26) CC(=O)C1CC(C)CCC1C(C)C (stereo not drawn) | 99.2% (inactive)
27) CC[C@@H]1C(=O)N(C)c2cnc(Nc3ccc(C(=O)NC4CCC(N5CCN(CC6CC6)CC5)CC4)cc3OC)nc2N1C(C)C (stereo partly drawn) | -18.5% (active)
28) Cn1nccc1Nc1nccc(-c2ccn([C@H](CO)c3ccc(Cl)c(F)c3)c(=O)c2)n1 | 82% (inactive)
29) COc1cc(NCCCN)c2ncccc2c1 | 95.7% (inactive)
30) CN1CCC(COc2cnc(-c3cccc(Cn4nc(-c5cccc(C#N)c5)ccc4=O)c3)nc2)CC1 | 73.3% (inactive)
31) CCNCCNc1cc(-c2ccc(Cl)c(Cl)c2)c(C#N)c2nc3ccccc3n12 | -70.7% (active)
32) CCCNC(=O)c1cn2ncnc(Nc3cc(C(=O)NC4CC4)ccc3C)c2c1C | 42.4% (inactive)
33) COc1cc2c(Oc3ccc(NC(=O)C4(C(=O)Nc5ccc(F)cc5)CC4)cc3F)ccnc2cc1OCCCN1CCOCC1 | -34.7% (active)
34) C=C1C(=O)O[C@H]2[C@H]1CC/C(CNC(=O)c1cc3cc(OC)ccc3[nH]1)=C\CC[C@@]1(C)O[C@@H]21 | -19.8% (active)
35) CCCCCC(=O)OCc1ccc(Cl)c(Cl)c1 | 106% (inactive)
36) Cc1nc2cc(-c3nn(C(C)C)c4ncnc(N)c34)ccc2o1 | -39% (active)
37) C=CC(=O)Nc1cccc(Nc2nc(Nc3ccc(N4CCN(C(C)=O)CC4)cc3OC)ncc2C(F)(F)F)c1 | -29.9% (active)
38) N#Cc1c(NC(=O)c2ccco2)[n+]([O-])c2cc(F)c(F)cc2[n+]1[O-] | 29.6% (inactive)
